- System: UMC-11
- assay-summary: relative viability (nuclei count vs DMSO), 5 days (fraction); higher = more cells survive
- condition-set: first compound 0.6325 µM
endpoint-label: relative viability
One number for each entry.

CN1CCN(CCOc2cc(OC3CCOCC3)c3c(Nc4c(Cl)ccc5c4OCO5)ncnc3c2)CC1 [Saracatinib] + CCNC(=O)c1noc(-c2cc(C(C)C)c(O)cc2O)c1-c1ccc(CN2CCOCC2)cc1 [Luminespib] (partner 0.01 µM) | 0.863

Then there is this molecule:
// relative viability lookup, molecule = CN1CCN(CCOc2cc(OC3CCOCC3)c3c(Nc4c(Cl)ccc5c4OCO5)ncnc3c2)CC1 [Saracatinib] + Cc1nc(Nc2ncc(C(=O)Nc3c(C)cccc3Cl)s2)cc(N2CCN(CCO)CC2)n1 [Dasatinib] (partner 0.075 µM) , result: 0.543

* * *

- System: NCI-H2009
- assay-summary: relative viability (nuclei count vs DMSO), 5 days (fraction); higher = more cells survive
- condition-set: first compound 0.006325 µM
What relative viability was measured for each of the following?

CCNC(=O)c1noc(-c2cc(C(C)C)c(O)cc2O)c1-c1ccc(CN2CCOCC2)cc1 [Luminespib] + CC(=O)Nc1cccc(-n2c(=O)n(C3CC3)c(=O)c3c(Nc4ccc(I)cc4F)n(C)c(=O)c(C)c32)c1 [Trametinib] (partner 0.02 µM) | 0.225
CCNC(=O)c1noc(-c2cc(C(C)C)c(O)cc2O)c1-c1ccc(CN2CCOCC2)cc1 [Luminespib] + O=C(c1cc(Cc2n[nH]c(=O)c3ccccc23)ccc1F)N1CCN(C(=O)C2CC2)CC1 [Olaparib] (partner 8 µM) | 0.67

Notebook: CCNC(=O)c1noc(-c2cc(C(C)C)c(O)cc2O)c1-c1ccc(CN2CCOCC2)cc1 [Luminespib] + N=C(N)NC(=N)NCCc1ccccc1 [Phenformin] (partner 250 µM) , relative viability read as 0.44

* * *

- Test system: HCC-15
- assay-summary: relative viability (nuclei count vs DMSO), 5 days (fraction); higher = more cells survive
- condition-set: first compound 8 µM
I'd be grateful if you could share measured relative viability for these entries.
One number for each entry.

Nc1cccc2c1CN(C1CCC(=O)NC1=O)C2=O (stereo unspecified) [Lenalidomide] + CC(=O)Nc1cccc(-n2c(=O)n(C3CC3)c(=O)c3c(Nc4ccc(I)cc4F)n(C)c(=O)c(C)c32)c1 [Trametinib] (partner 0.02 µM) | 0.334
Nc1cccc2c1CN(C1CCC(=O)NC1=O)C2=O (stereo unspecified) [Lenalidomide] + NC(=O)Nc1cc(-c2cccc(F)c2)sc1C(=O)N[C@H]1CCCNC1 [AZD7762] (partner 0.2 µM) | 1.36
Nc1cccc2c1CN(C1CCC(=O)NC1=O)C2=O (stereo unspecified) [Lenalidomide] + C[C@]1(O)C[C@@H](c2nc(-c3ccc4ccc(-c5ccccc5)nc4c3)c3c(N)nccn32)C1 [Linsitinib] (partner 1 µM) | 0.895
Nc1cccc2c1CN(C1CCC(=O)NC1=O)C2=O (stereo unspecified) [Lenalidomide] + O=C(CCCCCCC(=O)Nc1ccccc1)NO [Vorinostat] (partner 1 µM) | 0.795

Take each entry in turn and give its relative viability.
1. Nc1cccc2c1CN(C1CCC(=O)NC1=O)C2=O (stereo unspecified) [Lenalidomide] + COc1cc2c(Oc3ccc(NC(=O)C4(C(=O)Nc5ccc(F)cc5)CC4)cc3F)ccnc2cc1OCCCN1CCOCC1 [Foretinib] (partner 0.25 µM)
2. Nc1cccc2c1CN(C1CCC(=O)NC1=O)C2=O (stereo unspecified) [Lenalidomide] + Cc1nc(NC(=O)N2CCC[C@H]2C(N)=O)sc1-c1ccnc(C(C)(C)C(F)(F)F)c1 [Alpelisib] (partner 2 µM)

1.05
0.865

* * *

- System: NCI-H23
- assay-summary: relative viability (nuclei count vs DMSO), 5 days (fraction); higher = more cells survive
- condition-set: first compound 0.253 µM
Field: label. Allowed values: 1 (yes) (relative viability < 0.5) or 0 (no) (relative viability >= 0.5).

Past entries and their recorded results:
Nc1cccc2c1CN(C1CCC(=O)NC1=O)C2=O (configuration not stated) [Lenalidomide] + N=C(N)NC(=N)NCCc1ccccc1 [Phenformin] (partner 250 µM) | 0 (no)
Nc1cccc2c1CN(C1CCC(=O)NC1=O)C2=O (configuration not stated) [Lenalidomide] + CC(=O)Nc1cccc(-n2c(=O)n(C3CC3)c(=O)c3c(Nc4ccc(I)cc4F)n(C)c(=O)c(C)c32)c1 [Trametinib] (partner 0.02 µM) | 1 (yes)
Nc1cccc2c1CN(C1CCC(=O)NC1=O)C2=O (configuration not stated) [Lenalidomide] + CC(=O)c1c(C)c2cnc(Nc3ccc(N4CCNCC4)cn3)nc2n(C2CCCC2)c1=O [Palbociclib] (partner 0.5 µM) | 0 (no)

Threshold test, relative viability < 0.5: Nc1cccc2c1CN(C1CCC(=O)NC1=O)C2=O (configuration not stated) [Lenalidomide] + C[C@]1(O)C[C@@H](c2nc(-c3ccc4ccc(-c5ccccc5)nc4c3)c3c(N)nccn32)C1 [Linsitinib] (partner 1 µM)
1 (yes)

Please determine if Nc1cccc2c1CN(C1CCC(=O)NC1=O)C2=O (configuration not stated) [Lenalidomide] + CC1(C)CCC(c2ccc(Cl)cc2)=C(CN2CCN(c3ccc(C(=O)NS(=O)(=O)c4ccc(N[C@H](CCN5CCOCC5)CSc5ccccc5)c(S(=O)(=O)C(F)(F)F)c4)cc3)CC2)C1 [Navitoclax] (partner 0.5 µM) is below 0.5 in terms of relative viability.
0 (no)

relative viability under 0.5? Item: Nc1cccc2c1CN(C1CCC(=O)NC1=O)C2=O (configuration not stated) [Lenalidomide] + CS(=O)(=O)N1CCN(Cc2cc3nc(-c4cccc5[nH]ncc45)nc(N4CCOCC4)c3s2)CC1 [Pictilisib] (partner 1 µM)
1 (yes)

Strictly below 0.5 in relative viability? Nc1cccc2c1CN(C1CCC(=O)NC1=O)C2=O (configuration not stated) [Lenalidomide] + CCNC(=O)c1noc(-c2cc(C(C)C)c(O)cc2O)c1-c1ccc(CN2CCOCC2)cc1 [Luminespib] (partner 0.01 µM)
1 (yes)

* * *

- System: NCI-H1648
- assay-summary: relative viability (nuclei count vs DMSO), 5 days (fraction); higher = more cells survive
- condition-set: first compound 2 µM
For each entry below, report its relative viability value.
Numbers only.

Example molecules with recorded relative viability:
CN1CCN(CCOc2cc(OC3CCOCC3)c3c(Nc4c(Cl)ccc5c4OCO5)ncnc3c2)CC1 [Saracatinib] + Nc1ncn([C@H]2C[C@H](O)[C@@H](CO)O2)c(=O)n1 [Decitabine] (partner 2 µM) | 0.391
CN1CCN(CCOc2cc(OC3CCOCC3)c3c(Nc4c(Cl)ccc5c4OCO5)ncnc3c2)CC1 [Saracatinib] + O=C(c1cc(Cc2n[nH]c(=O)c3ccccc23)ccc1F)N1CCN(C(=O)C2CC2)CC1 [Olaparib] (partner 8 µM) | 0.417
Cc1csc(=NC2CCCCC2)n1/N=C/c1ccc(O)c(O)c1O [MIM1] + CC(=O)Nc1cccc(-n2c(=O)n(C3CC3)c(=O)c3c(Nc4ccc(I)cc4F)n(C)c(=O)c(C)c32)c1 [Trametinib] (partner 0.02 µM) | 0.619

Kindly give each listed record's relative viability.
1. CN1CCN(CCOc2cc(OC3CCOCC3)c3c(Nc4c(Cl)ccc5c4OCO5)ncnc3c2)CC1 [Saracatinib] + COc1cccc2cc(-c3nc([C@H]4CC[C@H](C(=O)O)CC4)n4ncnc(N)c34)[nH]c12 [OSI-027] (partner 0.5 µM)
2. CN1CCN(CCOc2cc(OC3CCOCC3)c3c(Nc4c(Cl)ccc5c4OCO5)ncnc3c2)CC1 [Saracatinib] + CC(=O)c1c(C)c2cnc(Nc3ccc(N4CCNCC4)cn3)nc2n(C2CCCC2)c1=O [Palbociclib] (partner 0.5 µM)
3. Cc1csc(=NC2CCCCC2)n1/N=C/c1ccc(O)c(O)c1O [MIM1] + CC(=O)c1c(C)c2cnc(Nc3ccc(N4CCNCC4)cn3)nc2n(C2CCCC2)c1=O [Palbociclib] (partner 0.5 µM)
4. CN1CCN(CCOc2cc(OC3CCOCC3)c3c(Nc4c(Cl)ccc5c4OCO5)ncnc3c2)CC1 [Saracatinib] + Nc1nc2[nH]cc(CCc3ccc(C(=O)N[C@@H](CCC(=O)O)C(=O)O)cc3)c2c(=O)[nH]1 [Pemetrexed] (partner 0.2 µM)

[0.283, 0.307, 0.311, 0.415]

// for each molecule below, give its relative viability
1. Cc1csc(=NC2CCCCC2)n1/N=C/c1ccc(O)c(O)c1O [MIM1] + O=C(c1cc(Cc2n[nH]c(=O)c3ccccc23)ccc1F)N1CCN(C(=O)C2CC2)CC1 [Olaparib] (partner 8 µM)
2. Cc1csc(=NC2CCCCC2)n1/N=C/c1ccc(O)c(O)c1O [MIM1] + COc1cccc2cc(-c3nc([C@H]4CC[C@H](C(=O)O)CC4)n4ncnc(N)c34)[nH]c12 [OSI-027] (partner 0.5 µM)

[0.697, 0.28]

Data origin: the supplement of paper PMC10307832
